B1: HDV Ribozyme (parent)
chain: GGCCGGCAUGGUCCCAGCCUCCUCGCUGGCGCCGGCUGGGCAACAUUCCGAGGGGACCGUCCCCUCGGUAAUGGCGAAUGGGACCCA

- Variants of: B1
- Protocol notes: self-cleavage, relative activity (ratio to wild type); higher = more cleavage; co-transcriptional
Measurement label: self-cleavage

[[record]]
sequence_string = "GGCCGGCAUGGGCCCAGCCUCCUCGCUGGCGCCGGCUGGGCAACAUUCCGAGGGGACCGUCCCCUCGGUAAUCGCGAAUGGGACCCA [U12G G73C]"
quantitative_result = 0.489

[[record]]
sequence_string = "GGCCGGCAUGGUCCCAGCCUUCUCGCUGGCGCCGGCUGGGCAACAUUCCGAGGGGACCGUCCCCUCGGUAAUGGGGAAUGGGACCCA [C21U C75G]"
quantitative_result = 0.151

[[record]]
sequence_string = "GGCCGGCAUAGUCCCAGCCUCCUCGCUGGCGCAGGCUGGGCAACAUUCCGAGGGGACCGUCCCCUCGGUAAUGGCGAAUGGGACCCA [G10A C33A]"
quantitative_result = 0.111

[[record]]
sequence_string = "GGCCGGCAUGGUCCCAGCCUCCUCGCUGGCGCCGGCUUGGCAACAUUCCGAGGGGACCGUCCCCUCGGUAAUGGCGAAUAGGACCCA [G38U G80A]"
quantitative_result = 0.102

[[record]]
sequence_string = "GGCCGGCAUGGUCCCAGCCUCCUAGCUGGCGCCGGCUGGGCAACAUUCCGAGGGGACCGUCCCCUCGGUAAUAGCGAAUGGGACCCA [C24A G73A]"
quantitative_result = 0.234

[[record]]
sequence_string = "GGCCGGCAUGGUCCCAGGCUCCUCGCUGGCGCCGGCUGGACAACAUUCCGAGGGGACCGUCCCCUCGGUAAUGGCGAAUGGGACCCA [C18G G40A]"
quantitative_result = 0.175

[[record]]
sequence_string = "GGCCGGCAUGGUCCCAGCCUCCUCGGUGACGCCGGCUGGGCAACAUUCCGAGGGGACCGUCCCCUCGGUAAUGGCGAAUGGGACCCA [C26G G29A]"
quantitative_result = 0.208

[[record]]
sequence_string = "GGCCGGCAUGGUCCCAGCCUCCUCGCUCGCGCCGGCUGGGCAACAUUCCGAGGGGACCGUCCCCUCGGUAAUGGCGAAUAGGACCCA [G28C G80A]"
quantitative_result = 0.193

[[record]]
sequence_string = "GGCCGGCAUGGUCCCAGCCUCCUCGCUGGCGCCGGCUGGGCAACAUUCCUAUGGGACCGUCCCCUCGGUAAUGGCGAAUGGGACCCA [G50U G52U]"
quantitative_result = 0.68

[[record]]
sequence_string = "GGCCGGCAUGGUCCCAGCCUCCUCGCUGGCGGCGGCUGGGCAACAUUCCGAGGGGACCGUCCCCUCGGUAAUGGCGAAUGGGACCCC [C32G A87C]"
quantitative_result = 0.0545

[[record]]
sequence_string = "UGCCGGCAUGGUCCCAGCCUCCUCGCUGGCGCCGGCUGGGCAACAUUCUGAGGGGACCGUCCCCUCGGUAAUGGCGAAUGGGACCCA [G1U C49U]"
quantitative_result = 0.391

